Molecular target: T1, Human MuSK (R&D Systems, cat. 10189-MK, histidine tag) (human, UniProt O15146 24-495)
T1 construct: Bought protein; also called human monomeric MuSK-6xhis; not shown: histidine tag (6xhis)
T1 sequence: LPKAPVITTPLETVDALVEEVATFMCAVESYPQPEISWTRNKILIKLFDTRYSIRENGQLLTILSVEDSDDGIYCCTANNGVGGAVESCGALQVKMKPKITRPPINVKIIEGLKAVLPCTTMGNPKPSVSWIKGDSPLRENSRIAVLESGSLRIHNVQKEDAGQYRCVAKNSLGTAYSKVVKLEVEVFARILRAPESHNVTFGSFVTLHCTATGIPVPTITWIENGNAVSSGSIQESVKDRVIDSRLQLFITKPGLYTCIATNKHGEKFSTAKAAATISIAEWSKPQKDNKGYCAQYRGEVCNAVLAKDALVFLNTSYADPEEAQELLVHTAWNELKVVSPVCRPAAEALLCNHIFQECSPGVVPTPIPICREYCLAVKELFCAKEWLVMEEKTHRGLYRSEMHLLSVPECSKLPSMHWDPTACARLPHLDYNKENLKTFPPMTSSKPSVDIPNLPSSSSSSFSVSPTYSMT
Assay: SPR (Biacore), antibody captured on anti-hFc chip; 2.5 nM; dissociation pH 7.4
Endpoint: koff (s⁻¹)
Hi! Could you send only the number? It should be in s⁻¹, unit omitted.

[[record]]
binder = "3D9b (antibody, human IgG1, kappa, L234A L235A, V domains shown) VH: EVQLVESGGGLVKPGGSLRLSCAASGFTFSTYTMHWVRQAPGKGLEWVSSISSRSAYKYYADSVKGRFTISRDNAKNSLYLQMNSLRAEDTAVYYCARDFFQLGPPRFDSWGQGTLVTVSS VL: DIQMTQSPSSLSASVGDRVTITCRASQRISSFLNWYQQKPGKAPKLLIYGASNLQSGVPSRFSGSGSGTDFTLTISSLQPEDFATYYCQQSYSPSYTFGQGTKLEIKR"
endpoint = "koff"
unit_abbrev = "s⁻¹"
number = "9e-05"

[[record]]
binder = "3F6c (antibody, human IgG1, kappa, L234A L235A, V domains shown) VH: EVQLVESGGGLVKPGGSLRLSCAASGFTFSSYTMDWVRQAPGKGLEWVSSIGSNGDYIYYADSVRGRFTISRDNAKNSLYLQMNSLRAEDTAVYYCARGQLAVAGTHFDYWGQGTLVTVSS VL: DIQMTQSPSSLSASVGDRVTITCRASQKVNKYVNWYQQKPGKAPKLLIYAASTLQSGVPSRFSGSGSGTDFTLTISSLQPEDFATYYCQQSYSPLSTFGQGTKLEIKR"
endpoint = "koff"
unit_abbrev = "s⁻¹"
number = "6e-05"


koff lookup needed for 3D10a (antibody, human IgG1, kappa, L234A L235A, V domains shown) VH: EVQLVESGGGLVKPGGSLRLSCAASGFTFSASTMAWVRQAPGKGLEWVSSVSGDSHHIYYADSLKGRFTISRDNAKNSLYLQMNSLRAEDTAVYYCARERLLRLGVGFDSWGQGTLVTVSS VL: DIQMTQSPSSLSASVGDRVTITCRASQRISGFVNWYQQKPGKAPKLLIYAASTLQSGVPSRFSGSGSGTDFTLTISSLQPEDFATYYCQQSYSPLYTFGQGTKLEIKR , thanks.
0.00018

koff lookup needed for 4D3 (antibody, human IgG1, kappa, L234A L235A, V domains shown) VH: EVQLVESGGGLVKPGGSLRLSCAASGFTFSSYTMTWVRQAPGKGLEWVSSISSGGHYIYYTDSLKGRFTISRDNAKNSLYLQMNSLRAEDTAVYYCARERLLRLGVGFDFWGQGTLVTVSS VL: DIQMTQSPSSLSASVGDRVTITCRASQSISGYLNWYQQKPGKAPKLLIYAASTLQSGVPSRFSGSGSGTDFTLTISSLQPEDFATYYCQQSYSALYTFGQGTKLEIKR , thanks.
0.00015
